test_target: Antithrombin inhibition of factor Xa (Homo sapiens)
Sequence (P01008 33-464): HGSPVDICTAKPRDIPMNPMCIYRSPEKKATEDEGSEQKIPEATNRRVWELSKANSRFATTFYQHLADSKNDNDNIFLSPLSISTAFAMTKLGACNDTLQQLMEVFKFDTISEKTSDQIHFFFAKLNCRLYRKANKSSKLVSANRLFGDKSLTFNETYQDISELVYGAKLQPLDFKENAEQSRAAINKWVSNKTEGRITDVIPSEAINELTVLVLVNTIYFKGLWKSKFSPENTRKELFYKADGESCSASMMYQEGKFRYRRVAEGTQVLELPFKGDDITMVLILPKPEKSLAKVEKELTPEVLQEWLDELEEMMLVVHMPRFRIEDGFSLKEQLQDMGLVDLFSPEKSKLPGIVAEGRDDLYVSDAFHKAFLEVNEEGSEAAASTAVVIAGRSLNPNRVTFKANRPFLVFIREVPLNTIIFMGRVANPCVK
experiment: Kinetics of antithrombin inhibition of factor Xa in presence of activators
Format: biochemical
experimental_setup: pH 6.0, 25 mM NaCl, 25 °C; error ±1 S.E.
# binarize kACT (second-order rate constant of fXa inhibition by AT–activator complex): threshold 8000 M⁻¹ s⁻¹ inclusive, high side 1.0, low side 0.0

O=C(Cc1cc(OS(=O)(=O)[O-])ccc1OS(=O)(=O)[O-])N1CCc2cc(OS(=O)(=O)[O-])c(OS(=O)(=O)[O-])cc2C1.[Na+].[Na+].[Na+].[Na+] [compound 7]
0.0

Evaluate O=C(CCCc1cc(OS(=O)(=O)[O-])ccc1OS(=O)(=O)[O-])N1CCc2c(ccc(OS(=O)(=O)[O-])c2OS(=O)(=O)[O-])C1.[Na+].[Na+].[Na+].[Na+] [compound 8] : kACT (second-order rate constant of fXa inhibition by AT–activator complex) at minimum 8000 M⁻¹ s⁻¹? 0.0

Entry to check: O=C([O-])C1Cc2c(OS(=O)(=O)[O-])ccc(OS(=O)(=O)[O-])c2CN1C(=O)CCc1cc(OS(=O)(=O)[O-])ccc1OS(=O)(=O)[O-].[Na+].[Na+].[Na+].[Na+].[Na+] (centres unmarked) [20b] 1.0

----------
Overview of recorded kACT (second-order rate constant of fXa inhibition by AT–activator complex) for various molecules
test_target: UniProt:P01008
experiment: Kinetics of antithrombin inhibition of factor Xa in presence of activators
Format: biochemical
experimental_setup: pH 6.0, 25 mM NaCl, 25 °C; error ±1 S.E.
A number alone suffices; assume M⁻¹ s⁻¹.

O=C([O-])C1Cc2cc(OS(=O)(=O)[O-])c(OS(=O)(=O)[O-])cc2CN1C(=O)CCCc1cc(OS(=O)(=O)[O-])ccc1OS(=O)(=O)[O-].[Na+].[Na+].[Na+].[Na+].[Na+] (centres unmarked) [19c]
9640

What value of kACT (second-order rate constant of fXa inhibition by AT–activator complex) has been reported for the following molecule? O=C([O-])C1Cc2cc(OS(=O)(=O)[O-])c(OS(=O)(=O)[O-])cc2CN1C(=O)Cc1cc(OS(=O)(=O)[O-])ccc1OS(=O)(=O)[O-].[Na+].[Na+].[Na+].[Na+].[Na+] (centres unmarked) [19a] 19740

Entry to check: O=C([O-])C1Cc2c(OS(=O)(=O)[O-])ccc(OS(=O)(=O)[O-])c2CN1C(=O)Cc1cc(OS(=O)(=O)[O-])ccc1OS(=O)(=O)[O-].[Na+].[Na+].[Na+].[Na+].[Na+] (centres unmarked) [20a] 32630

Entry to check: O=C([O-])C1Cc2cc(OS(=O)(=O)[O-])c(OS(=O)(=O)[O-])cc2CN1C(=O)CCc1cc(OS(=O)(=O)[O-])ccc1OS(=O)(=O)[O-].[Na+].[Na+].[Na+].[Na+].[Na+] (centres unmarked) [19b] 8051

Entry to check: O=C([O-])C1Cc2c(OS(=O)(=O)[O-])ccc(OS(=O)(=O)[O-])c2CN1C(=O)CCCc1cc(OS(=O)(=O)[O-])ccc1OS(=O)(=O)[O-].[Na+].[Na+].[Na+].[Na+].[Na+] (centres unmarked) [20c] 46330
